- study.system: Adenosine receptor A1 (Homo sapiens)
- Sequence (P30542 whole entry): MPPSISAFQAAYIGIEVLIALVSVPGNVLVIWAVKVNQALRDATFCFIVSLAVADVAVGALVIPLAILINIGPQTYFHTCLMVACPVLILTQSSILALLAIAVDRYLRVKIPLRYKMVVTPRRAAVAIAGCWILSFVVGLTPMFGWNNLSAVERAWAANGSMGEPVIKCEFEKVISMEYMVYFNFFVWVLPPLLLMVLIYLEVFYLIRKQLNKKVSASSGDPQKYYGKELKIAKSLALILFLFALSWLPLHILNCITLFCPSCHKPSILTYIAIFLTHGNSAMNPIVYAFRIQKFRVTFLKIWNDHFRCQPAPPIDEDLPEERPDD
- experiment: Displacement of [3H]N6-phenylisopropyladenosine from recombinant human A1AR expressed in CHO cell membranes after 60 mins by liquid scintillation counting method
reported.endpoint: Ki (nM)
Give just the numeric value; nM need not be written.

IN: I have this molecule here, `CC[C@H](Nc1nc(Cl)nc2c1ncn2[C@H]1[C@H](O)[C@H](O)[C@]2(CO)C[C@H]12)C1CC1` , and I need its recorded Ki.
OUT: 117

IN: Then this molecule: `O[C@@H]1[C@H](O)[C@@H]2C[C@@H]2[C@H]1n1cnc2c(NCc3cccc(Cl)c3)nc(Cl)nc21`
OUT: 1600

IN: Repeat for the following molecule: `CC(C)[C@@H](Nc1nc(Cl)nc2c1ncn2[C@H]1[C@H](O)[C@H](O)[C@]2(CO)C[C@H]12)C1CC1`
OUT: 103

IN: Now the molecule `CCCOC(=O)[C@@]12C[C@@H]1[C@@H](n1cnc3c(NC(C4CC4)C4CC4)nc(Cl)nc31)[C@H](O)[C@@H]2O`
OUT: 440

IN: // repeat for `OC[C@@]12C[C@@H]1[C@@H](n1cnc3c(NC(C4CC4)C4CC4)nc(Cl)nc31)[C@H](O)[C@@H]2O` and report
OUT: 39

IN: Then this molecule: `OC[C@@]12C[C@@H]1[C@@H](n1cnc3c(N[C@@H](C4CCC4)C4CC4)nc(Cl)nc31)[C@H](O)[C@@H]2O`
OUT: 144

IN: Entry `CC(=O)NCCNC(=O)[C@@]12C[C@@H]1[C@@H](n1cnc3c(NC(C4CC4)C4CC4)nc(Cl)nc31)[C@H](O)[C@@H]2O` please
OUT: 397

IN: How about this molecule: `CCC(CC)Nc1nc(Cl)nc2c1ncn2[C@H]1[C@H](O)[C@H](O)[C@]2(CO)C[C@H]12`
OUT: 112

IN: Then what about the molecule `CCOC(=O)[C@@]12C[C@@H]1[C@@H](n1cnc3c(NC(C4CC4)C4CC4)nc(Cl)nc31)[C@H](O)[C@@H]2O` ?
OUT: 360

IN: What about `Nc1nc(Cl)nc2c1ncn2[C@@H]1O[C@H](CO)[C@@H](O)[C@H]1O` ?
OUT: 2.8

IN: // repeat for `CNC(=O)[C@@]12C[C@@H]1[C@@H](n1cnc3c(NC(C4CC4)C4CC4)nc(Cl)nc31)[C@H](O)[C@@H]2O` and report
OUT: 110

---

- experiment: Metabolic stability in human plasma assessed as compound remaining measured after 120 mins
- Format: ADME, cell-free
- condition.set: read-out: Stability
Answer each item with its documented remaining at 2 h.

IN: Recorded remaining at 2 h of `CNC(=O)[C@@]12C[C@@H]1[C@@H](n1cnc3c(NC(C4CC4)C4CC4)nc(Cl)nc31)[C@H](O)[C@@H]2O` , please.
OUT: 100 to 104%

IN: Entry to check: `COC(=O)[C@@]12C[C@@H]1[C@@H](n1cnc3c(NC(C4CC4)C4CC4)nc(Cl)nc31)[C@H](O)[C@@H]2O`
OUT: 95.3 to 100%

---

- study.system: UniProt P41595
- condition.set: HEK293, at 10 µM
reported.endpoint: inhibition

IN: // query inhibition value for entry `CNC(=O)[C@@]12C[C@@H]1[C@@H](n1cnc3c(NC(C4CC4)C4CC4)nc(Cl)nc31)[C@H](O)[C@@H]2O`
OUT: > 50%

IN: Please do the same for `CN(C)c1nc(Cl)nc2c1ncn2[C@H]1[C@H](O)[C@H](O)[C@]2(CO)C[C@H]12` as well.
OUT: > 50%

IN: Then what about the compound `CN(C)c1nc(Cl)nc2c1ncn2[C@H]1[C@H](O)[C@H](O)[C@]2(C(=O)O)C[C@H]12` ?
OUT: > 50%

---

- study.system: 5-hydroxytryptamine receptor 2B (Homo sapiens, UniProt P41595)
- Sequence (P41595 whole entry): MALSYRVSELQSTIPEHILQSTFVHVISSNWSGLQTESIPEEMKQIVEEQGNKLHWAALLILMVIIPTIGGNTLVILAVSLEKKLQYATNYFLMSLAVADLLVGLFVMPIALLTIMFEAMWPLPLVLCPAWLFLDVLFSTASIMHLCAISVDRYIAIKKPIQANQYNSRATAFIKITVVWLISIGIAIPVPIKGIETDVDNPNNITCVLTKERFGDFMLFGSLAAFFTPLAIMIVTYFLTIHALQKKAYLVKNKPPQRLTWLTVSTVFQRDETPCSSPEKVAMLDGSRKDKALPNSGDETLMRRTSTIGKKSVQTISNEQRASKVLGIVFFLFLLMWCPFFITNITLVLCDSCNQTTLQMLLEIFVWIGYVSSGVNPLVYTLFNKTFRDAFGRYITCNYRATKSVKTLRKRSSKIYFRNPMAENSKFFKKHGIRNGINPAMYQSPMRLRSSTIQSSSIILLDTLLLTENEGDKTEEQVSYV
- experiment: biochemical
- Type: cell-based, HEK293
Could you please report measured Ki for the items listed next?
Report the figure in µM without appending any unit label.

IN: # query: Ki of entry `CNC(=O)[C@@]12C[C@@H]1[C@@H](n1cnc3c(N(C)C)nc(Cl)nc31)[C@H](O)[C@@H]2O`
OUT: 2.1

IN: Then what about the compound `Clc1cccc(CNc2nc(Cl)nc3[nH]cnc23)c1` ?
OUT: 2.16

IN: And what about the compound `CCCOC(=O)[C@@]12C[C@@H]1[C@@H](n1cnc3c(NC(C4CC4)C4CC4)nc(Cl)nc31)[C@H](O)[C@@H]2O` ?
OUT: 0.045

IN: Could you do the same for `O[C@@H]1[C@H](O)[C@@H]2C[C@@H]2[C@H]1n1cnc2c(NCc3cccc(Cl)c3)nc(Cl)nc21` , please?
OUT: 2.39

IN: Try this compound next: `CN(C)c1nc(Cl)nc2c1ncn2[C@H]1[C@H](O)[C@H](O)[C@]2(CO)C[C@H]12`
OUT: 4.8

IN: Would you kindly repeat that for `CC(=O)NCCCNC(=O)[C@@]12C[C@@H]1[C@@H](n1cnc3c(NC(C4CC4)C4CC4)nc(Cl)nc31)[C@H](O)[C@@H]2O` ?
OUT: 0.534

IN: And for `COC(=O)[C@@]12C[C@@H]1[C@@H](n1cnc3c(NC(C4CC4)C4CC4)nc(Cl)nc31)[C@H](O)[C@@H]2O` ?
OUT: 0.019

IN: Then what about the compound `CN(C)c1nc(Cl)nc2c1ncn2[C@H]1[C@H](O)[C@H](O)[C@]2(C(=O)O)C[C@H]12` ?
OUT: 4.7

IN: Repeat for the following compound: `CC(=O)NCCNC(=O)[C@@]12C[C@@H]1[C@@H](n1cnc3c(NC(C4CC4)C4CC4)nc(Cl)nc31)[C@H](O)[C@@H]2O`
OUT: 0.332

IN: Cool, now `CCOC(=O)[C@@]12C[C@@H]1[C@@H](n1cnc3c(NC(C4CC4)C4CC4)nc(Cl)nc31)[C@H](O)[C@@H]2O`
OUT: 0.015

IN: `CNC(=O)[C@@]12C[C@@H]1[C@@H](n1cnc3c(NC(C4CC4)C4CC4)nc(Cl)nc31)[C@H](O)[C@@H]2O` ?
OUT: 0.023

IN: Also need `O[C@@H]1[C@H](O)[C@@H]2C[C@@H]2[C@H]1n1cnc2c(NC(C3CC3)C3CC3)nc(Cl)nc21` , thanks.
OUT: 0.675

IN: Please answer likewise for `CCOC(=O)[C@@]12C[C@@H]1[C@@H](n1cnc3c(N(C)C)nc(Cl)nc31)[C@H](O)[C@@H]2O`
OUT: 0.671

IN: Queued: CNC(=O)[C@H]1O[C@@H](n2cnc3c(NCc4cccc(I)c4)nc(Cl)nc32)[C@H](O)[C@@H]1O [NAMODENOSON]
OUT: 2.77

---

- study.system: Cytochrome P450 3A4 (Homo sapiens)
- Sequence (P08684 whole entry): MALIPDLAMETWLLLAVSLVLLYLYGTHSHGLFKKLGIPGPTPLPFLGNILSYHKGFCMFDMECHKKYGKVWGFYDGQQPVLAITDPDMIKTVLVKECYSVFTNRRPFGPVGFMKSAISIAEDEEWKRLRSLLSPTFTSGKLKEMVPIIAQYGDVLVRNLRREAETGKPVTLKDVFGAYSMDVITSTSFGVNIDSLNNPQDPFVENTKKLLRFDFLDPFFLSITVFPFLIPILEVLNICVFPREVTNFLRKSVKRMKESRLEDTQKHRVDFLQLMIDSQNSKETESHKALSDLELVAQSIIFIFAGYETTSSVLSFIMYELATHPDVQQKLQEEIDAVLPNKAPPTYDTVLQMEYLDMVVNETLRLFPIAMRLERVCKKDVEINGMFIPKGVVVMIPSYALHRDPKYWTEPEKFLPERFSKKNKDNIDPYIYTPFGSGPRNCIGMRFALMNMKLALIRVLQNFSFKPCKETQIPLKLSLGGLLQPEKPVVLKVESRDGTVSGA
reported.endpoint: IC50

IN: Endpoint output: IC50 of `CNC(=O)[C@@]12C[C@@H]1[C@@H](n1cnc3c(NC(C4CC4)C4CC4)nc(Cl)nc31)[C@H](O)[C@@H]2O` . Value?
OUT: > 30 µM

---

- study.system: 5-hydroxytryptamine receptor 2C (Homo sapiens) (UniProt P28335)
- Sequence (whole entry): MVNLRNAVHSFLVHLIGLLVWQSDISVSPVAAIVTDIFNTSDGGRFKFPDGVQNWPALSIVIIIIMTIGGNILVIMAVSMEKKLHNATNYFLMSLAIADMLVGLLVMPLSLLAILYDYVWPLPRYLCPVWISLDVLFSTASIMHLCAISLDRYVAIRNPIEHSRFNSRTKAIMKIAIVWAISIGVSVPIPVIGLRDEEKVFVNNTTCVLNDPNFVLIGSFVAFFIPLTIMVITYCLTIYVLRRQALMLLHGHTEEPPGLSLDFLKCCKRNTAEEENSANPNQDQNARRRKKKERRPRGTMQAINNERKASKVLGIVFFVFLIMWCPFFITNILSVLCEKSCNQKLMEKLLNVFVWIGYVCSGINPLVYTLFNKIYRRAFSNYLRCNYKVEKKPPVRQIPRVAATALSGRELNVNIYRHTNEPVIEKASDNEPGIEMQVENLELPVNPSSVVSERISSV
- experiment: Displacement of [3H]mesulergine from human 5-HT2CR expressed in Flp-In HEK cell membranes at 10 uM incubated for 90 mins under dark condition by microbeta scintillation counting method relative to control
- condition.set: HEK293
reported.endpoint: inhibition

IN: # query: inhibition of entry `CCCOC(=O)[C@@]12C[C@@H]1[C@@H](n1cnc3c(NC(C4CC4)C4CC4)nc(Cl)nc31)[C@H](O)[C@@H]2O`
OUT: > 50%

IN: Try the molecule `Nc1nc(Cl)nc2c1ncn2[C@H]1[C@H](O)[C@H](O)[C@]2(CO)C[C@H]12`
OUT: < 10%

IN: Proceed to CNC(=O)[C@H]1O[C@@H](n2cnc3c(NCc4cccc(I)c4)nc(Cl)nc32)[C@H](O)[C@@H]1O [NAMODENOSON]
OUT: > 50%

IN: For `CCOC(=O)[C@@]12C[C@@H]1[C@@H](n1cnc3c(NC(C4CC4)C4CC4)nc(Cl)nc31)[C@H](O)[C@@H]2O` then?
OUT: > 50%

IN: Another: `Nc1ncnc2c1ncn2[C@@H]1O[C@H](C(=O)NC2CC2)[C@@H](O)[C@H]1O`
OUT: < 10%

IN: Param item: `OC[C@@]12C[C@@H]1[C@@H](n1cnc3c(NC(C4CC4)C4CC4)nc(Cl)nc31)[C@H](O)[C@@H]2O`
OUT: > 50%

IN: Try CNC(=O)[C@H]1O[C@@H](n2cnc3c(NCc4cccc(I)c4)ncnc32)[C@H](O)[C@@H]1O [IB-MECA] next.
OUT: > 50%

IN: Please give the result for `OC[C@@]12C[C@@H]1[C@@H](n1cnc3c(N[C@@H](C4CCC4)C4CC4)nc(Cl)nc31)[C@H](O)[C@@H]2O` too.
OUT: > 50%

IN: Now the same for `CNC(=O)[C@@]12C[C@@H]1[C@@H](n1cnc3c(N(C)C)nc(C#Cc4ccc(Cl)s4)nc31)[C@H](O)[C@@H]2O`
OUT: > 50%

IN: Now this one: `O=C(O)[C@@]12C[C@@H]1[C@@H](n1cnc3c(NC(C4CC4)C4CC4)nc(Cl)nc31)[C@H](O)[C@@H]2O`
OUT: > 50%

IN: Thanks! And `Fc1ccc(C#Cc2nc(NCc3cccc(Cl)c3)c3nc[nH]c3n2)cc1F` ?
OUT: 11%
